Entries and their log10(Ki)
- experimental-target: Substance-K receptor (Homo sapiens)
- Sequence (P21452 whole entry): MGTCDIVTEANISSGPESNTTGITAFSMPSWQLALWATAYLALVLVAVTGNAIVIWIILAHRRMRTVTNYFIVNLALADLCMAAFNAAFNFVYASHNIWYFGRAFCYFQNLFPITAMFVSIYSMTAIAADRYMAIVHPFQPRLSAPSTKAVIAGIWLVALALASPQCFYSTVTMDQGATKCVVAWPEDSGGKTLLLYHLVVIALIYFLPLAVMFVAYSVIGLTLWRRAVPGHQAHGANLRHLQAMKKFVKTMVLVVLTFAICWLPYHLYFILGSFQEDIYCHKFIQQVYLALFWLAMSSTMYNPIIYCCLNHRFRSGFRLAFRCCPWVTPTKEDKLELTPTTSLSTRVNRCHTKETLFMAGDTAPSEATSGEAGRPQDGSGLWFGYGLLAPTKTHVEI
- procedure-details: Binding affinity against recombinant human tachykinin receptor 2 in CHO cells using [3H]-NKA as radioligand
parameter: log10(Ki) (log10 of the value in nM)

CO/N=C(\CN(C)C(=O)c1cc(Cl)cc(Cl)c1)[C@H](CCN1CCC(N2CCCN(Cc3ccoc3)C2=O)CC1)c1ccc(Cl)c(Cl)c1	0.04
CO/N=C(\CN(C)C(=O)c1cc(Cl)cc(Cl)c1)[C@H](CCN1CCC(N2CCCN(C)C2=O)CC1)c1ccc(Cl)c(Cl)c1	-0.15
CO/N=C(\CN(C)C(=O)c1cc(Cl)cc(Cl)c1)[C@H](CCN1CCC(N2CCCN(CC(N)=O)C2=O)CC1)c1ccc(Cl)c(Cl)c1	-0.70
CO/N=C(\CN(C)C(=O)c1cc(Cl)cc(Cl)c1)[C@H](CCN1CCC(N2CCCN(CC(C)(C)O)C2=O)CC1)c1ccc(Cl)c(Cl)c1	-0.10
CCN(C/C(=N\OC)[C@H](CCN1CCC(n2c(=O)n(CC#N)c3ccccc32)CC1)c1ccc(Cl)c(Cl)c1)C(=O)c1cc(Cl)cc(Cl)c1	0.40
